Tested on: MS2 coat protein
assayMethodText: apparent KD of MS2 coat protein; higher = weaker reporter binding
appliedConditions: Eterna round: R107; input ligand: tryptophan 2.4 mM
The following sequences are listed with their measured apparent KD of MS2 coat protein values.
Answer with a number only, understood to be in nM.

## Input Provide only the value of recorded apparent KD of MS2 coat protein for GGGCCCGGGCGCGAGCCCGGGCCCAUUGAUACCAGUGAGAGAGAGCGCCCUUGGCAGCGAAUCCUAACAUGAGGAUCACCCAUGU [5.N]
## Output 41.6

## Input Retrieve apparent KD of MS2 coat protein measured for AGGACCAGGAACAUGGGUGAACUGGUCCAACGAGGACCGGUACGGCCGCCACUCGAAUAAACAUGAGGAUCACCCAUGUAAUAAU [T''-M-T'-T-MS2] and print it.
## Output 210

## Input Answer with the recorded apparent KD of MS2 coat protein for the sequence listed here: AAACAUGAGGAUCACCCAUGUUCUCGUGUCCGAGGACCGGUACGGCCGCCACUCGGUUCUCGCGAGGAUGGUCAAAGACUAUCCA [Omei Trp A SS B v6]
## Output 29
